The measurements presented in this section are drawn from the supplement of paper PMC8285479.

- Tested on: NCI-H1944
- Run Description: normalised cell viability (NPI; 0 = phenylarsine oxide control, 1 = DMSO control) (fraction of DMSO control); higher = more viable cells (less compound toxicity)
- Stated Conditions: glucocorticoid arm: hydrocortisone 2.75 uM co-treatment; compound 5 µM; 6 days
Where a name gives a salt, the structure may show the parent alone. Whole data set: some 1,900 compounds, median “normalised cell viability (NPI; 0 = phenylarsine oxide control, 1 = DMSO control)” near 1, cut for the lowest 2% near 0.039. Many of the other results were omitted from the sample, so the lowest values are more common in it than they were.
Result Type: normalised cell viability
// no unit string in output, number only

Lab note: measured normalised cell viability of CNCc1ccc(C)c(NC(=O)c2ccc(Nc3nc(-c4ccccc4)c4ccccc4n3)cc2)c1 was 0.939

// normalised cell viability lookup, molecule = CN(C)CCC(c1ccc(Cl)cc1)c1ccccn1 (single isomer, unassigned; (+)) [(+)-Chlorpheniramine maleate] , result: 0.997

Record OCCn1cc(-c2cnc3nnn(Cc4ccc5ncccc5c4)c3n2)cn1 , field normalised cell viability: 1.02

Given item Cc1cc(Nc2ccc(NC(=O)c3ccc(Nc4ccnc5ccccc45)cc3)cc2)nc(N)n1 , the value recorded as its normalised cell viability is -0.000696

* * *

- Test system: NCI-H1944
- Run Description: normalised cell viability (NPI; 0 = phenylarsine oxide control, 1 = DMSO control) (fraction of DMSO control); higher = more viable cells (less compound toxicity)
- Stated Conditions: glucocorticoid arm: vehicle; compound 5 µM; 6 days
In all, about 1,900 compounds were measured (“normalised cell viability (NPI; 0 = phenylarsine oxide control, 1 = DMSO control)”: median about 1, lowest 2% from about 0.039 on). For the sample, the lowest values were picked, then their nearest neighbours and some compounds at random.
Result Type: normalised cell viability
# print the numeric value only

C#Cc1ccc2c(c1)C(=O)N(C)Cc1c(C(=O)OCCCOC(=O)c3ncn4c3CN(C)C(=O)c3cc(C#C)ccc3-4)ncn1-2 [Xli 093 hydrate]; 0.997
CCOC(=O)C1=CN(Cc2ccccc2)C=C(C(=O)OCC)C1c1ccccc1; 1
Cn1c(=O)c(F)c(Nc2ccc(I)cc2F)c2c(=O)n(C[C@@H](O)CO)cnc21; 0.226
O=C(c1ccc(F)cc1)N1CCCC(c2nc(-c3ccc(F)cc3)no2)C1 (centres undefined); 1
CC1(C2CCCC2)Cc2cc(OCC(=O)O)c(Cl)c(Cl)c2C1=O (centres undefined); 0.985
Nc1ncnc2c1c(-c1cccc(OCc3ccccc3)c1)cn2C1CC(CN2CCC2)C1 (centres undefined); 0.776
O=C(c1ccc(Cl)cc1)N1CCN(c2ccc([N+](=O)[O-])c3ncccc23)CC1; 1
Nc1ncnc2c1nc(Br)n2C1OC2COP(=O)(O)O[C@@H]2C1O (some centres undefined) [8-Bromo-cAMP sodium]; 0.965

In the following, a different compound is considered.
Data point: CC(C)CC(=O)Nc1n[nH]c2c1CN(C(=O)C1CCN(C)CC1)C2(C)C ; normalised cell viability = 0.0459

* * *

- System: NCI-H1944;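 further: CTB read-out in 384-well plates, triplicate wells, NPI normalised per plate against 1 µM phenylarsine oxide (0) and 0.1% DMSO (1) controls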
- Run Description: normalised cell viability (NPI; 0 = phenylarsine oxide control, 1 = DMSO control) (fraction of DMSO control); NCI-H1944 is a non-small cell lung cancer line; higher = more viable cells (less compound toxicity)
- Stated Conditions: glucocorticoid arm: vehicle; compound 5 µM; 6 days
Counter-ions that a name gives are not always drawn. In all, about 1,900 compounds were measured (“normalised cell viability (NPI; 0 = phenylarsine oxide control, 1 = DMSO control)”: median about 1, lowest 2% from about 0.039 on). Only a selection was taken, and the lowest values are over-represented in it overall.
Result Type: normalised cell viability
# answer = number (no unit)

# example entries with known answers
CCCCOc1c(C(=O)c2c(F)cc(C)cc2F)c[nH]c2nncc1-2; 0.861
CC(C)C[C@H](NC(=O)[C@H](Cc1ccccc1)NC(=O)c1cnccn1)B(O)O; 0.00157
N=c1ccn2c(n1)O[C@H]1[C@H](O)[C@@H](CO)O[C@H]12 [Ancitabine hydrochloride]; 0.0465

The recorded normalised cell viability for NC(C(=O)O)C(O)C(=O)O (racemic) [DL-threo-beta-hydroxyaspartic acid] is 1

Sure, the documented normalised cell viability for CC(C)C[C@H](NC(=O)[C@H](O)[C@H](N)Cc1ccccc1)C(=O)O [Epibestatin hydrochloride] is 1.01

Per the records, this compound ( N[C@@H](CCCC(=O)O)C(=O)O ) has normalised cell viability equal to 0.982

The compound listed as [N-]=[N+]=Nc1ccc(C(=O)CSC[C@H](NC(=O)CC[C@H](N)C(=O)O)C(=O)NCC(=O)O)cc1 has a reported normalised cell viability of 0.517

// sample CNc1ncnc2c1ncn2[C@H]1C[C@H](OP(=O)(O)O)[C@@H](COP(=O)(O)O)O1 , its normalised cell viability was 0.994
